Biological target: T1, human transferrin receptor (recombinant, for surface plasmon resonance) (human, UniProt P02786 89-760)
T1 construct: also called huTfR; human transferrin receptor-biotinylated
T1 sequence (P02786 89-760 limits assumed): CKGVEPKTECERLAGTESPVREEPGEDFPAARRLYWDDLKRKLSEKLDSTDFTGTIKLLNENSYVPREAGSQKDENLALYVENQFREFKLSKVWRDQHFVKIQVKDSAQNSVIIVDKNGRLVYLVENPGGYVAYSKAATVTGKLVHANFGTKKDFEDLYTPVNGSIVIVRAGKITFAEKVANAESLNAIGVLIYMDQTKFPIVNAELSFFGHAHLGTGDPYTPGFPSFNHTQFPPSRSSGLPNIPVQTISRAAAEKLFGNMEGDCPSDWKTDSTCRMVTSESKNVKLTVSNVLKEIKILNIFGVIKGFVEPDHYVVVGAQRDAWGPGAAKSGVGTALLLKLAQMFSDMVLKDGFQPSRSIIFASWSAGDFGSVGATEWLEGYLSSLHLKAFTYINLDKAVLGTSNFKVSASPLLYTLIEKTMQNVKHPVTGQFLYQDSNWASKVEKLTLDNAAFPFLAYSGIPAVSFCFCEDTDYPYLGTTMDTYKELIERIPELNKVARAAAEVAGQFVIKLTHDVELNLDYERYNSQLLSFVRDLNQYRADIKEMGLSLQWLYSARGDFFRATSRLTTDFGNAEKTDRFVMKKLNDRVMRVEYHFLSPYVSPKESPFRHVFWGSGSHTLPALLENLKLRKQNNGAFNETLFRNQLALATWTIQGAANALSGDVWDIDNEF
Experiment: SPR 25C
quantity measured: koff (s⁻¹)
// units = s⁻¹; emit number, no label

- binder: "2/99 VH11/VL8 (antibody, V domains shown) VH: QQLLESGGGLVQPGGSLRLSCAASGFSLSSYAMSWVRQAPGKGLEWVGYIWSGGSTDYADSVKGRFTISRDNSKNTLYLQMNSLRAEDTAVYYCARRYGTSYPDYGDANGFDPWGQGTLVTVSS VL: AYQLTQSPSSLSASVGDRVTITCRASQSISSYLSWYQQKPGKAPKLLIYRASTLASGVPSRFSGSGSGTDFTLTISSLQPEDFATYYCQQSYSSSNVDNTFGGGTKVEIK"
  unit abbrev: "s⁻¹"
  koff: 0.00552
- binder: "2/99 VH23-DANG/VL9-NYA (antibody, V domains shown, also called VH23-DANG/VL09-NYA; VH23-DANG with VK9-NYA) VH: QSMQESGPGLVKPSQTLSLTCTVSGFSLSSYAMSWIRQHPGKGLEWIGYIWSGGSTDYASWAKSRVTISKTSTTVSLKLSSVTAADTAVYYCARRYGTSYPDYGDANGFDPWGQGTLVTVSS VL: AIQLTQSPSSLSASVGDRVTITCRASQSISSYLAWYQQKPGKAPKLLIYRASTLASGVPSRFSGSGSGTDFTLTISSLQPEDFATYYCQQNYASSNVDNTFGGGTKVEI"
  unit abbrev: "s⁻¹"
  koff: 0.000769

# ---- query binder ----
Lookup: May I ask what koff has been recorded for 2/99 VH17/VL4 (antibody, V domains shown) VH: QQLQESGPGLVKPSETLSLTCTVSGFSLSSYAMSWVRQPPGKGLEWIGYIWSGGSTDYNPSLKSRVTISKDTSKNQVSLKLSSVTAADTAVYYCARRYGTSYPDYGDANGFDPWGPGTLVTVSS VL: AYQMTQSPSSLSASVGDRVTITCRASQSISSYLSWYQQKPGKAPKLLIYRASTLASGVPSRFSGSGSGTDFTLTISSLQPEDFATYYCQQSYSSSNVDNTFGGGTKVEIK ?
Found: 0.000723

// provenance: patent US20180291110A1
